# Study Target: Alk kinase (Homo sapiens, UniProt Q9UM73)
# Construct: purchased Millipore (KinaseProfiler Service)
# Sequence (Q9UM73 19-1620): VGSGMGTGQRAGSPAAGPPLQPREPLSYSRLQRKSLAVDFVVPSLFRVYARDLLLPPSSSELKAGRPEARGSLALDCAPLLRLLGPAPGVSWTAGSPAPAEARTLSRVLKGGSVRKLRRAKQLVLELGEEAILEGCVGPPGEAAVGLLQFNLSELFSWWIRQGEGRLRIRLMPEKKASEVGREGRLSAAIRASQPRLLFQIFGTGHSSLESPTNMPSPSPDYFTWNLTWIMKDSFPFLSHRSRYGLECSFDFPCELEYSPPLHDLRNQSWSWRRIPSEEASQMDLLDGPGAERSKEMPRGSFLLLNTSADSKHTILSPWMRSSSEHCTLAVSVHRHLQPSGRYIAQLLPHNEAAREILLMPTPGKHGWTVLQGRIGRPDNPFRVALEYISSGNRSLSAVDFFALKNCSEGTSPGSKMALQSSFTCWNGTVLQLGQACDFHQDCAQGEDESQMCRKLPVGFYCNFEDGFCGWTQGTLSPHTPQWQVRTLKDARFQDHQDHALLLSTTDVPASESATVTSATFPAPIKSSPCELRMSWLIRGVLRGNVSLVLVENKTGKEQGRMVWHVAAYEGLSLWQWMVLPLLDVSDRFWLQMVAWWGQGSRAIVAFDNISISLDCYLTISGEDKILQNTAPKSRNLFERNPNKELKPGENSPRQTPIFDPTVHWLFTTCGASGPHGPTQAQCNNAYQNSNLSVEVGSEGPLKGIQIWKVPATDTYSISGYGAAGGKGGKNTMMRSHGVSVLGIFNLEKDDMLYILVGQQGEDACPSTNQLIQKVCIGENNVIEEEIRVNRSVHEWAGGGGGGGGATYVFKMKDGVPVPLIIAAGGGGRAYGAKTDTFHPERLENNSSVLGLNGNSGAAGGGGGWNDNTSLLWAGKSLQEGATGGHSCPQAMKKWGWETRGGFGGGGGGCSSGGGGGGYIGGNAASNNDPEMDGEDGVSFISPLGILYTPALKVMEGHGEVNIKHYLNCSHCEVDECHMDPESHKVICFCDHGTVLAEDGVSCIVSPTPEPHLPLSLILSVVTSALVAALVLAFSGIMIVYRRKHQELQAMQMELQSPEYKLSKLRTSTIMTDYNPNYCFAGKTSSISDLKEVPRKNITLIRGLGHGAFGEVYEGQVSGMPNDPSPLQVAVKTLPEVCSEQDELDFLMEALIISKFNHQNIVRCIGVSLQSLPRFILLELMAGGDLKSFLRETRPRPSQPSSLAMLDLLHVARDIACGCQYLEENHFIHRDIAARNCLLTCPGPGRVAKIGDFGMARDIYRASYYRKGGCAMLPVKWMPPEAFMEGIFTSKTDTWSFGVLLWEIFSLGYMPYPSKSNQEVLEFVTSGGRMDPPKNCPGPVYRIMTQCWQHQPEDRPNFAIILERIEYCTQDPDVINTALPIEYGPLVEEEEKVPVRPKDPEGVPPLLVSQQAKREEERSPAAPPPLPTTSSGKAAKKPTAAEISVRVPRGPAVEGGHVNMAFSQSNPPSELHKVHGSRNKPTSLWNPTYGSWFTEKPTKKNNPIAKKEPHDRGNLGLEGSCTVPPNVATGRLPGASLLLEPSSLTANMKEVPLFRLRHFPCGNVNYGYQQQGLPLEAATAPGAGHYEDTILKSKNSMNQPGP
# Assay Remarks: KinaseProfiler kinase inhibition assay, Alk
# Format: biochemical
# Condition Parameters: 1 μM compound
Observable: inhibition at 1 µM (%)

Solved cases below.
Chemical Smiles | inhibition at 1 µM / %
Cc1cc2c(F)c(Oc3cc(Nc4ccc(N5CCN(C)CC5)cc4)ncn3)ccc2[nH]1 | 3
Cc1cc2c(F)c(Oc3cc(Nc4cccc(N5CCN(C)CC5)c4)ncn3)ccc2[nH]1 | 60
COc1c(Nc2ccc(N3CCN(C)CC3)cn2)ncnc1Oc1ccc2[nH]c(C)cc2c1F | -18
CCN1CCN(c2ccc(Nc3ncnc(Oc4ccc5c(cc(C)n5C)c4F)c3F)cc2)CC1 | -3
CC(=O)N1CCN(c2ccc(Nc3cc(Oc4cc(F)c5[nH]c(C)cc5c4F)ncn3)cc2)CC1 | 63
Cc1cc2c(F)c(Oc3ncnc(Nc4ccc(N5CCN(C)CC5)cc4)c3N)ccc2[nH]1 | -34
Cc1cc2c(F)c(Oc3ncnc(Nc4ccc(N5CCN(C)CC5)cc4)c3F)ccc2[nH]1 | 38
Cc1cc2c(F)c(Oc3ncnc(Nc4ccc(N5CCN(C)CC5)cn4)c3N)ccc2[nH]1 | -31
Cc1cc2c(F)c(Oc3ncnc(Nc4cc(C5CC5)n[nH]4)c3F)ccc2[nH]1 | -21
Cc1cc2c(F)c(Oc3cc(Nc4ccc(N5CCOCC5)cc4)ncn3)ccc2[nH]1 | 70

1: CCN1CCN(c2ccc(Nc3cc(Oc4cc(F)c5[nH]c(C)cc5c4F)ncn3)cc2)CC1
2: Cc1cc2c(F)c(Oc3ncnc(Nc4ccc(N5CCN(C)CC5)cn4)c3F)ccc2[nH]1
When their inhibition at 1 µM values are compared, which is larger, 1 or 2 ? Bench note: the answer is the label of the chosen record.
1

P: CCN1CCN(c2ccc(Nc3ncnc(Oc4ccc5[nH]c(C)cc5c4F)c3F)cc2)CC1
Q: CCN1CCN(c2ccc(Nc3ncnc(Oc4ccc5[nH]c(C)cc5c4F)c3C#N)nc2)CC1
When their inhibition at 1 µM values are compared, which is larger, P or Q ? Bench note: the answer is the label of the chosen record.
P
(P: 69%, Q: -23%)
